I'd be grateful if you could share measured TGI for these entries.
- Tested on: DLD-1 colon
- experiment-summary: NCI tumour cell line growth inhibition, 48 h

# annotated cases, reported TGI shown
INSERT INTO results (molecule, observed_value) VALUES
  ('CC[N+](C)(C)c1ccc(C(=C2C=CC(=[N+](C)C)C=C2)c2ccc(N(C)C)cc2)cc1', '62.4 µM'),
  ('Cc1cc(N(CCC#N)CCC#N)ccc1N=Nc1ccccc1[N+](=O)[O-]', '> 100 µM'),
  ('N#C[C@]12CC3(CC[C@H]1CC1(C2)OCCO1)OCCO3', '> 100 µM'),
  ('O=[N+]([O-])c1ccc(OCCNc2cccc3ccccc23)cc1', '> 100 µM'),
  ('COc1cccc(/C=C\c2cc(OC)c(OC)c(OC)c2)c1', '> 100 µM');

Lab note: each molecule below needs its TGI filled in.
1. Cc1ccc(C)c(NC(=O)CC2C(=O)Nc3ccccc3S2(=O)=O)c1 (stereo unspecified)
2. COC1C(=[N+]=[N-])C(=O)NC(=O)N1C1OC(COC(c2ccccc2)(c2ccccc2)c2ccccc2)C(O)C1O (stereo unspecified)
3. CN(OC(=O)CC(=O)c1ccccc1)C(=O)Cc1ccccc1
4. CC(C)(C)c1ccc(Oc2ccc(C#N)c(C#N)c2)c(C(C)(C)C)c1
5. COC1=C(OC)C(=O)c2cc(SC)c(=O)c(SC)cc2C1=O

(A)
> 100 µM
37.3 µM
> 100 µM
> 100 µM
> 100 µM

(Q) Indicate its recorded TGI; the molecule in question is COc1cccc2c1C(=O)c1c(O)c3c(c(O)c1C2=O)CC(O)(C(C)=O)CC3OC1CC([N+](C)(C)C)C(O)C(C)O1 (stereo unspecified)
(A) > 100 µM

###

- System: HT29 colon
- experiment-summary: NCI tumour cell line growth inhibition, 48 h
For each entry below, report its TGI value.
One number for each entry, in µM.

INSERT INTO assay_data (compound, observed_value) VALUES
  ('CCOC(=O)N(C)CCC1CC=CC(=O)C1c1cccc(OC)c1OC (stereo not given)', 34.1);

# evaluate next
(Q) Quickly give me recorded TGI for COc1ccc(/C=C/C(=O)/C=C(/C=C/c2ccc(OC)c(OC)c2)OB(F)F)cc1OC
(A) 4.95

###

For each of the molecules below, state its TGI.
- Tested on: A549 NSCLC
- experiment-summary: NCI tumour cell line growth inhibition, 48 h

INSERT INTO assay_data (molecule, experimental_target, observed_value) VALUES
  ('O=C1CSC2(CC(/C=C/c3cccc(Br)c3)=NN2c2cccc(S(=O)(=O)O)c2)N1c1nc2ccccc2s1 (stereo not given)', 'A549 NSCLC', '> 100 µM');

Report TGI for every entry below.
1. Nc1ccc2c(c1)N(C(=O)CCCC(=O)N1CC(CCl)c3ccc(N)cc31)CC2CCl (stereo not given)
2. COc1ccc2c(c1)nc1n2C(c2c(F)cccc2F)SC1 (stereo not given)

(A)
> 50 µM
> 100 µM

// each listed molecule needs a value for TGI
1. O=c1oc2ccccc2c(Cl)c1Cl
2. C=C(CN1CCc2ccccc2C1)c1ccc(/C=C/C(=O)Nc2ccccc2N)cc1

(A)
32.2 µM
> 100 µM

###

- System: NCI-H460 lung
- experiment-summary: NCI tumour cell line growth inhibition, 48 h
measured-parameter: log10(TGI) (log10 of the value in µM)
Scale type: logarithmic (base 10). Underlying TGI unit: µM.

INSERT INTO measurements (compound, observed_value) VALUES
  ('Cc1ccc([N+](=O)[O-])cc1S(=O)(=O)Nc1ccc(C2=NOC(c3ccccc3)C2)cc1 (stereo not drawn)', 1.46),
  ('CCOC(=O)c1[nH]c2cccc3c2c1CC(Br)C3=O (stereo not drawn)', 1.68);

# map each compound to its log10(TGI)
1. OCc1ccc(N(Cc2ccc(F)cc2)C2CCC2)cc1Cl
2. O=c1oc2ccccc2c(Cl)c1Cl
3. Cc1ccc2c(/C=C/C(=O)c3cc(CN4CCOCC4)c(O)c4nc(C)ccc34)cc(CN3CCOCC3)c(O)c2n1
4. COC(=O)C1=C(O)C(C(=O)OC)[C@]2(O)[C@H](C(=O)OC)[C@H]1C[C@@H](c1ccc(Cl)cc1Cl)[C@H]2C(=O)OC (stereo partly drawn)
5. COc1cc2c(cc1C)NC(=O)/C2=C\c1cccnc1
6. CCOc1cc(NC(C)=O)ccc1C(=O)NN1C(=O)C(Cl)C1c1ccc(O)c(OC)c1 (stereo not drawn)

(A)
1. 1.01
2. 1.08
3. 0.97
4. 1.37
5. 1.93
6. 1.52

Count: 2. Required value per item: log10(TGI).
1. COc1ccc(/C=C/C(=O)/C=C(/C=C/c2ccc(OC)c(OC)c2)OB(F)F)cc1OC
2. NCCCn1c2c(c3ccccc3c1=O)C(=O)c1cc3c(cc1-2)OCO3

(A)
1. 0.66
2. 1.10

Give log10(TGI) for each listed item.
1. CC[N+](C)(C)c1ccc(C(=C2C=CC(=[N+](C)C)C=C2)c2ccc(N(C)C)cc2)cc1
2. N#Cc1c(-c2cccc(Br)c2)cc(-c2ccc(Cl)cc2)nc1N
3. COC(=O)C/C(C)=C/[C@@H](O)[C@H]1O[C@@H]2CC/C(Cl)=C/C/C=C(/C)[C@H](OC(C)=O)CC(=O)O[C@@H]1C2
4. O=C(CSc1nc2ccc([N+](=O)[O-])cc2[nH]1)Nc1cccc(C(F)(F)F)c1

(A)
1: 1.35; 2: 1.71; 3: 1.14; 4: 1.05

###

- Tested on: NCI-H460 lung
- experiment-summary: NCI tumour cell line growth inhibition, 48 h
Give measured TGI for each item. Keep answers brief.

INSERT INTO assay_data (compound, experimental_target, observed_value) VALUES
  ('Cc1ccc(C)c(NC(=O)CC2C(=O)Nc3ccccc3S2(=O)=O)c1 (stereo unspecified)', 'NCI-H460 lung', '> 100 µM'),
  ('COc1ccc(/C=C(\C#N)n2nnc3cc(Cl)ccc32)cc1', 'NCI-H460 lung', '> 56.6 µM'),
  ('O=C(O)C1CCCN1Cc1c[nH]c2ccccc12 (stereo unspecified)', 'NCI-H460 lung', '> 100 µM');

Please go through the list and note TGI for each compound.
1. COC(=O)C1Cc2c(n(C)c3ccccc23)C(c2ccccc2)N1 (stereo unspecified)
2. COc1ccc(-c2nc3sccn3c2/C=C/C(=O)c2cc(OC)c(OC)c(OC)c2)cc1OC
3. COc1ccccc1-c1n[nH]c(-c2ccccc2O)n1

(A)
["> 100 µM", "3.76 µM", "> 100 µM"]

###

- System: PC-3 prostate
- experiment-summary: NCI tumour cell line growth inhibition, 48 h; in the data active = GI50 below about 0.43 µM; inactive = the rest
Output constraint: value belongs to t (active), f (inactive)

INSERT INTO results (structure_smiles_string, experimental_target, assigned_label) VALUES
  ('C=C(CN1CCc2ccccc2C1)c1ccc(/C=C/C(=O)Nc2ccccc2N)cc1', 'PC-3 prostate', 'f'),
  ('COC(=O)/C=C1\SC(=Nc2ccc(C(F)(F)F)cc2)N(CCc2c[nH]c3ccccc23)C1=O', 'PC-3 prostate', 'f'),
  ('COc1ccc(/C=C/C(=O)/C=C(/C=C/c2ccc(OC)c(OC)c2)OB(F)F)cc1OC', 'PC-3 prostate', 'f'),
  ('C[C@@H](Oc1cc(-c2cnn(C3CCNCC3)c2)cnc1N)c1c(Cl)ccc(F)c1Cl', 'PC-3 prostate', 'f'),
  ('Cc1c(C(=O)CCl)c(=O)n(-c2ccccc2)n1C', 'PC-3 prostate', 'f'),
  ('CN(C)CCCNC(=O)c1cc(NC(=O)c2cc(NC(=O)CCCN3c4ccccc4C=Cc4ccccc43)cn2C)cn1C', 'PC-3 prostate', 'f');

(Q) Name the outcome recorded for O=C1c2[nH]cc(CN[C@@H]3CCCN3)c2C(=O)c2c1c(O)c1ccccc1c2O in the assay.
(A) t

(Q) How did this test come out for COc1ccc2c(CN3CCC(CO)CC3)cc3cc4c(cc3c2c1)OCO4 ?
(A) t

(Q) Assay outcome for Cc1c(C(=O)N/N=C/c2ccc(O)cc2)nnn1-c1ccnc2c(C(F)(F)F)cccc12 : what was it?
(A) f

(Q) How did this test come out for C=C1C(=O)O[C@H]2[C@H]1CC/C(COC(=O)/C=C/c1cccnc1)=C\CC[C@@]1(C)O[C@@H]21 ?
(A) f

(Q) For this molecule, state the assay outcome: O=C(CSc1nc2ccc([N+](=O)[O-])cc2[nH]1)Nc1cccc(C(F)(F)F)c1
(A) f

(Q) Entry c1ccc(Oc2c3ccccc3nc3ccccc23)cc1 : call = ?
(A) f

(Q) In this assay, the call recorded for O=C1c2cccnc2-c2nc(-c3ccccn3)cc3c2c1nc1ccccc13 was what?
(A) f

(Q) Called result for O=C1C(Cl)=C(Oc2ccccc2)C(=O)c2ccccc21
(A) f

Where do these numbers come from? They come from PubChem BioAssay (NCI).
